- Test system: Escherichia coli
- TEST DETAILS: Antibacterial activity against Escherichia coli ATCC 25922 after overnight incubation by microbroth dilution method
- Assay type: functional
Calls of active or inactive are those of the source. The rule behind the calls is not given here.
REPORTED METRIC: MIC90

For orientation, consider the following solved cases.
[
  {
    "MOLECULE": "O=C(O)c1cn(C2CC2)c2cc(N3CCNCC3)c(F)cc2c1=O",
    "MIC90": "30.2 µM"
  },
  {
    "MOLECULE": "NNC(=O)c1ccncc1",
    "MIC90": "inactive"
  },
  {
    "MOLECULE": "NC(Cc1ccccc1)C(=O)NNC(=O)c1ccncc1 (stereo unspecified)",
    "MIC90": "inactive"
  },
  {
    "MOLECULE": "CC(C)C(N)C(=O)NNC(=O)c1ccncc1 (stereo unspecified)",
    "MIC90": "inactive"
  },
  {
    "MOLECULE": "CC[C@H]1OC(=O)[C@H](C)[C@@H](O[C@H]2C[C@@](C)(OC)[C@@H](O)[C@H](C)O2)[C@H](C)[C@@H](O[C@@H]2O[C@H](C)C[C@H](N(C)C)[C@H]2O)[C@](C)(O)C[C@@H](C)/C(=N\\OCOCCOC)[C@H](C)[C@@H](O)[C@]1(C)O",
    "MIC90": "0.6 µM"
  }
]

Query: What MIC90 value was documented for this molecule, COc1nc(NNC(=O)c2ccncc2)nc(OC(=O)C(N)Cc2c[nH]c3ccccc23)n1 (stereo unspecified) ?
Result: 36 µM

Query: What MIC90 value was documented for this molecule, Cc1ncc([N+](=O)[O-])n1CCOC(=O)C(N)Cc1ccccc1 (stereo unspecified) ?
Result: 201 µM

Query: What MIC90 value was documented for this molecule, COc1nc(OCCn2c([N+](=O)[O-])cnc2C)nc(OC(=O)C(N)Cc2ccccc2)n1 (stereo unspecified) ?
Result: 7.4 µM

Query: What MIC90 value was documented for this molecule, COc1nc(NNC(=O)c2ccncc2)nc(OC(=O)C(N)Cc2ccccc2)n1 (stereo unspecified) ?
Result: 52 µM

Query: What MIC90 value was documented for this molecule, NC(Cc1c[nH]c2ccccc12)C(=O)NNC(=O)c1ccncc1 (stereo unspecified) ?
Result: 528 µM

Query: What MIC90 value was documented for this molecule, COc1cc(Cc2cnc(N)nc2NC(=O)C(N)Cc2c[nH]c3ccccc23)cc(OC)c1OC (stereo unspecified) ?
Result: 67.1 µM

Values were extracted from ChEMBL document CHEMBL4251638.
